Exercise: for every item that follows, state its recorded OFF oviposition reduction vs control agar.
# Test system: Bactrocera dorsalis (OFF)
# MEASUREMENT NOTES: OFF two-choice cage oviposition bioassay on guava juice-infused agar
# Format: in vivo
# CONDITION PARAMETERS: 20 mg/agar, 3 days
A complete answer gives the number followed by the unit.

Request: Suppose we examine the molecule CCCCC/C=C\C/C=C\CCCCCCCC(=O)O [C18:2, linoleic acid] ; what OFF oviposition reduction vs control agar value has been reported?
Result: 99%

Request: Now consider CCCCCCCC(=O)O [C8:0, caprylic acid] .
Result: 95%

Request: Another molecule: CCCCCCCCCC(=O)O [C10:0, capric acid]
Result: 92%

Request: Query CCCCCCCC/C=C\CCCCCCCC(=O)O [C18:1, oleic acid] next
Result: 100%

* * *

# Test system: Zeugodacus cucurbitae
# MEASUREMENT NOTES: Z. cucurbitae two-choice oviposition bioassay on pumpkin juice-infused agar
# Assay type: in vivo
# CONDITION PARAMETERS: individual compound, 20 mg dose
Please provide measured Z. cucurbitae oviposition reduction vs control agar for the entries that follow.
Write down the value, and be sure its unit follows.

Request: Give its Z. cucurbitae oviposition reduction vs control agar value. Item: CCCCCCCC(=O)O [C8:0, caprylic acid]
Result: 100%

Request: Same for CCCCCCCCCC(=O)O [C10:0, capric acid]
Result: 74%

Request: Then this compound: CCCCC/C=C\C/C=C\CCCCCCCC(=O)O [C18:2, linoleic acid]
Result: 96.4%

Request: Entry to check: CCCCCCCC/C=C\CCCCCCCC(=O)O [C18:1, oleic acid]
Result: 98.1%

* * *

# Test system: Bactrocera dorsalis (OFF)
# MEASUREMENT NOTES: OFF two-choice cage oviposition bioassay on guava juice-infused agar
# Assay type: in vivo
# CONDITION PARAMETERS: individual compound, 20 mg/agar
ASSAY READOUT: effect on OFF oviposition vs control agar

>  <SMILES CODE>
CCCCCCCCC(=O)O

>  <TESTED ON>
Bactrocera dorsalis (OFF)

>  <ENDPOINT RESULT>
significantly reduced

$$$$
>  <SMILES CODE>
CCCCCCCCCCCCC(=O)O

>  <TESTED ON>
Bactrocera dorsalis (OFF)

>  <ENDPOINT RESULT>
significantly reduced

$$$$
>  <SMILES CODE>
CCCCCCCCCCC(=O)O

>  <TESTED ON>
Bactrocera dorsalis (OFF)

>  <ENDPOINT RESULT>
significantly reduced

$$$$
